Please go through the items and note down their IC50.
Biological target: KRas G12S (Homo sapiens, UniProt P01116, G12S)
Construct: Biotinylated KRas (corresponding to amino acids 1-169, produced at Accelegan Inc.); biotin (biotinylated); purchased Accelegan Inc
Sequence (P01116 1-169 isoform P01116-2 G12S): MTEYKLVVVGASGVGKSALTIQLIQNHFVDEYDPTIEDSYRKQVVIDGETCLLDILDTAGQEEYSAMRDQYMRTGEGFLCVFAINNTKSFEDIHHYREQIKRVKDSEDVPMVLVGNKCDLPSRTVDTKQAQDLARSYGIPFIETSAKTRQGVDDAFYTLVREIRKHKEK
Experiment: KRas binding assay, TR-FRET displacement of Cy5 labelled tracer
Conditions: 60-minute incubation at room temperature, 1% DMSO, pH 7.5
Answers are plain numbers, in nM.

Please review the following examples before continuing.
INSERT INTO measurements (molecule, valuereported) VALUES
  ('CCc1c(F)ccc2cc(O)cc(-c3ncc4c(N5CC6CC(C(=O)N(C)C(C)=O)CC6C5)nc(OC[C@@]56CCCN5C[C@H](F)C6)nc4c3F)c12 (stereo partly drawn) [Example 279]', 188),
  ('CCc1c(F)ccc2cc(O)cc(N3CCc4c(nc(OC[C@@]56CCCN5C[C@H](F)C6)nc4N4CCCC(C(=O)n5ccc(C)n5)C4)C3)c12 (stereo partly drawn) [Example 144]', 32);

Next, consider the following molecule.
IC50 for Cc1ccn(C(=O)C2CCCN(c3nc(OC[C@@]45CCCN4C[C@H](F)C5)nc4c(F)c(-c5csc6ccc(N)nc56)c(Cl)cc34)CC2)n1 (stereo partly drawn) [Example 215] ?
169

###

Molecular target: KRas-mediated phosphorylation of ERK in MKN1 cells (Homo sapiens)
Construct: pERK HTRF read-out
Sequence (P01116 1-188 isoform P01116-2): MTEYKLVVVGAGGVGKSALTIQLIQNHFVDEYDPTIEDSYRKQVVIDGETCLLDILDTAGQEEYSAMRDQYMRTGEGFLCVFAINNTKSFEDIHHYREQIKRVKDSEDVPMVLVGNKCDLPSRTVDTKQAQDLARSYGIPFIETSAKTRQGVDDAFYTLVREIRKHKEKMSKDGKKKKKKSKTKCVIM
Assay: Inhibition of KRas-mediated phosphorylation of ERK (HTRF), MKN1 cells
Type: cell-based
Conditions: MKN1 cells (KRas WT); HTRF pERK; 3 h incubation
attributeMeasured: log10(IC50) (log10 of the value in nM)
Values reflect log10 of reported IC50 (nM).

INSERT INTO measurements (molecule, valuereported) VALUES
  ('COCCN(C(C)=O)C(=O)C1CCN(c2nc(OC[C@@]34CCCN3C[C@H](F)C4)nc3c(F)c(-c4ccc(F)c5sc(N)c(C#N)c45)c(Cl)cc23)CC1', 1.89);

Please state, for each entry, its recorded log10(IC50).
1. CCc1c(F)ccc2cc(O)cc(-c3ncc4c(N5CC6CCC(C(=O)n7ccc(C)n7)(C6)C5)nc(OC[C@@]56CCCN5C[C@H](F)C6)nc4c3F)c12 (some centres unmarked)
2. CCc1c(F)ccc2cc(O)cc(-c3ncc4c(NC[C@H]5C[C@@H]5C(=O)n5ccc(C)n5)nc(OC[C@@]56CCCN5C[C@H](F)C6)nc4c3F)c12
3. CCc1c(F)ccc2cc(O)cc(-c3ncc4c(N5C[C@H]6C[C@@H](C(=O)n7ccc(C)n7)C[C@H]6C5)nc(OC[C@@]56CCCN5C[C@H](F)C6)nc4c3F)c12
4. CN(CCCC(=O)Oc1ccc(F)cc1)c1nc(OC[C@@]23CCCN2C[C@H](F)C3)nc2c(F)c(-c3ccc(F)c4sc(N)c(C#N)c34)c(Cl)cc12

2.72
1.76
3.87
2.53

###

Biological target: KRas-mediated phosphorylation of ERK in H358 cells (Homo sapiens, UniProt P01116, G12C)
Construct: pERK HTRF read-out
Sequence (P01116 1-188 isoform P01116-2 G12C): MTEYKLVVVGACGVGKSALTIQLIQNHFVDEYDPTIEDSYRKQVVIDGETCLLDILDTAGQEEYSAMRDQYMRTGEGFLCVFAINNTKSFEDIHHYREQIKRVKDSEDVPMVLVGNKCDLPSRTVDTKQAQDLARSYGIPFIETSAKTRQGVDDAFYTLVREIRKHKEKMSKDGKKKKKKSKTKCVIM
Experiment: Inhibition of KRas-mediated phosphorylation of ERK (HTRF), H358 cells
Format: cell-based
Settings: HTRF pERK, 3 h incubation
Checkbox rule: IC50 lower than 400 nM = condition met; IC50 not lower than 400 nM = condition not met.

Past entries and their recorded results:
INSERT INTO assay_data (molecule, testedon, group) VALUES
  ('CCc1c(F)ccc2cc(O)cc(-c3ncc4c(N5CCC(C(=O)Oc6ccccc6)CC5)nc(OC[C@@]56CCCN5C[C@H](F)C6)nc4c3F)c12 [Example 39]', 'KRas-mediated phosphorylation of ERK in H358 cells (Homo sapiens, UniProt P01116, G12C)', 'condition not met'),
  ('CCc1c(F)ccc2cc(O)cc(-c3ncc4c(N(C)CC(C)CC(=O)N(C)C(C)=O)nc(OC[C@@]56CCCN5C[C@H](F)C6)nc4c3F)c12 (stereo partly shown) [Example 283]', 'KRas-mediated phosphorylation of ERK in H358 cells (Homo sapiens, UniProt P01116, G12C)', 'condition not met');

Dear colleague, could you confirm whether IC50 of CCc1c(F)ccc2cc(O)cc(-c3ncc4c(N(C)CCNC(=O)n5nccn5)nc(OC[C@@]56CCCN5C[C@H](F)C6)nc4c3F)c12 [Example 251] falls below 400 nM? Thanks.
condition met

Dear colleague, could you confirm whether IC50 of CCc1c(F)ccc2cc(O)cc(-c3ncc4c(N(C)CCNC(=O)n5ccnn5)nc(OC[C@@]56CCCN5C[C@H](F)C6)nc4c3F)c12 [Example 250] falls below 400 nM? Thanks.
condition met

Dear colleague, could you confirm whether IC50 of CCc1c(F)ccc2cc(O)cc(-c3ncc4c(N5CCC(C(=O)NC(C)=O)CC5)nc(OC[C@@]56CCCN5C[C@H](F)C6)nc4c3F)c12 [Example 212] falls below 400 nM? Thanks.
condition not met

Dear colleague, could you confirm whether IC50 of Cc1ccn(C(=O)C2C[C@@H]3CN(c4nc(OC[C@@]56CCCN5C[C@H](F)C6)nc5c(F)c(-c6ccc(F)c7sc(N)c(C#N)c67)c(Cl)cc45)C[C@@H]3C2)n1 (stereo partly shown) [Example 180] falls below 400 nM? Thanks.
condition met

Dear colleague, could you confirm whether IC50 of CN(CCCC(=O)Oc1ccc(F)cc1F)c1nc(OC[C@@]23CCCN2C[C@H](F)C3)nc2c(F)c(-c3ccc(F)c4sc(N)c(C#N)c34)c(Cl)cc12 [Example 271] falls below 400 nM? Thanks.
condition met

Dear colleague, could you confirm whether IC50 of CCc1c(F)ccc2cc(O)cc(-c3ncc4c(N5CC[C@H](C(=O)n6ccc(C)n6)[C@H](C)C5)nc(OC[C@@]56CCCN5C[C@H](F)C6)nc4c3F)c12 [Example 85] falls below 400 nM? Thanks.
condition not met

Dear colleague, could you confirm whether IC50 of CC(C)(C)c1ccn(C(=O)C2CCCN(c3nc(OC[C@@]45CCCN4C[C@H](F)C5)nc4c(F)c(-c5ccc(F)c6sc(N)c(C#N)c56)c(Cl)cc34)CC2)n1 (stereo partly shown) [Example 220] falls below 400 nM? Thanks.
condition not met

Dear colleague, could you confirm whether IC50 of CN(CCCC(=O)N(C)c1cccnc1)c1nc(OC[C@@]23CCCN2C[C@H](F)C3)nc2c(F)c(-c3ccc(F)c4sc(N)c(C#N)c34)c(Cl)cc12 [Example 266] falls below 400 nM? Thanks.
condition met

Dear colleague, could you confirm whether IC50 of CCc1c(F)ccc2cc(O)cc(-c3ncc4c(N(C)CCNC(=O)n5cncn5)nc(OC[C@@]56CCCN5C[C@H](F)C6)nc4c3F)c12 [Example 225] falls below 400 nM? Thanks.
condition met

Dear colleague, could you confirm whether IC50 of CN(C)CCc1ccn(C(=O)C2CCCN(c3nc(OC[C@@]45CCCN4C[C@H](F)C5)nc4c(F)c(-c5ccc(F)c6sc(N)c(C#N)c56)c(Cl)cc34)CC2)n1 (stereo partly shown) [Example 219] falls below 400 nM? Thanks.
condition met

Dear colleague, could you confirm whether IC50 of CN(CCCC(=O)Nc1cccnc1)c1nc(OC[C@@]23CCCN2C[C@H](F)C3)nc2c(F)c(-c3ccc(F)c4sc(N)c(C#N)c34)c(Cl)cc12 [Example 201] falls below 400 nM? Thanks.
condition met

Dear colleague, could you confirm whether IC50 of COCc1ccn(C(=O)C2CCCN(c3nc(OC[C@@]45CCCN4C[C@H](F)C5)nc4c(F)c(-c5ccc(F)c6sc(N)c(C#N)c56)c(Cl)cc34)CC2)n1 (stereo partly shown) [Example 190] falls below 400 nM? Thanks.
condition met

Dear colleague, could you confirm whether IC50 of Cc1ccn(C(=O)C2CCN(c3nc(OC[C@@]45CCCN4C[C@H](F)C5)nc4c(F)c(-c5ccc(F)c6sc(N)c(C#N)c56)c(Cl)cc34)CC2)n1 [Example 133] falls below 400 nM? Thanks.
condition met

Dear colleague, could you confirm whether IC50 of CN(CCN(C)c1nc(OC[C@@]23CCCN2C[C@H](F)C3)nc2c(F)c(-c3ccc(F)c4sc(N)c(C#N)c34)c(Cl)cc12)C(=O)n1nccn1 (single isomer, unassigned) [Example 202] falls below 400 nM? Thanks.
condition met

Dear colleague, could you confirm whether IC50 of CCc1c(F)ccc2cc(O)cc(-c3ncc4c(N5C[C@@H]6C[C@@H](C(=O)n7ccc(C)n7)[C@@H]6C5)nc(OC[C@@]56CCCN5C[C@H](F)C6)nc4c3F)c12 [Example 162] falls below 400 nM? Thanks.
condition not met

Dear colleague, could you confirm whether IC50 of CCc1c(F)ccc2cc(O)cc(-c3ncc4c(NC[C@@H]5C[C@H]5C(=O)N(C)C(C)=O)nc(OC[C@@]56CCCN5C[C@H](F)C6)nc4c3F)c12 [Example 281] falls below 400 nM? Thanks.
condition met

Dear colleague, could you confirm whether IC50 of Cc1ccn(C(=O)C2CCCN(c3nc(OC[C@@]45CCCN4C[C@H](F)C5)nc4c(F)c(-c5c(C#N)c(N)cc(C)c5C(F)(F)F)c(Cl)cc34)CC2)n1 (stereo partly shown) [Example 248] falls below 400 nM? Thanks.
condition not met

Dear colleague, could you confirm whether IC50 of CN(C(=O)C1CCN(c2nc(OC[C@@]34CCCN3C[C@H](F)C4)nc3c(F)c(-c4ccc(F)c5sc(N)c(C#N)c45)c(Cl)cc23)CC1)c1cccnc1 [Example 289] falls below 400 nM? Thanks.
condition met

Dear colleague, could you confirm whether IC50 of CCc1c(F)ccc2cc(O)cc(-c3ncc4c(N5CCC(C(=O)N(C)C(=O)C(C)(C)C)CC5)nc(OC[C@@]56CCCN5C[C@H](F)C6)nc4c3F)c12 [Example 224] falls below 400 nM? Thanks.
condition not met

Dear colleague, could you confirm whether IC50 of CCc1c(F)ccc2cc(O)cc(-c3ncc4c(N5CCC(C(=O)n6cc(C(C)C)cn6)CC5)nc(OC[C@@]56CCCN5C[C@H](F)C6)nc4c3F)c12 [Example 80] falls below 400 nM? Thanks.
condition not met

These entries and their values trace back to patent US20260356856A1.
